- Target System: Human dopamine transporter (DAT) (Homo sapiens, UniProt Q01959)
- Sequence (Q01959 whole entry): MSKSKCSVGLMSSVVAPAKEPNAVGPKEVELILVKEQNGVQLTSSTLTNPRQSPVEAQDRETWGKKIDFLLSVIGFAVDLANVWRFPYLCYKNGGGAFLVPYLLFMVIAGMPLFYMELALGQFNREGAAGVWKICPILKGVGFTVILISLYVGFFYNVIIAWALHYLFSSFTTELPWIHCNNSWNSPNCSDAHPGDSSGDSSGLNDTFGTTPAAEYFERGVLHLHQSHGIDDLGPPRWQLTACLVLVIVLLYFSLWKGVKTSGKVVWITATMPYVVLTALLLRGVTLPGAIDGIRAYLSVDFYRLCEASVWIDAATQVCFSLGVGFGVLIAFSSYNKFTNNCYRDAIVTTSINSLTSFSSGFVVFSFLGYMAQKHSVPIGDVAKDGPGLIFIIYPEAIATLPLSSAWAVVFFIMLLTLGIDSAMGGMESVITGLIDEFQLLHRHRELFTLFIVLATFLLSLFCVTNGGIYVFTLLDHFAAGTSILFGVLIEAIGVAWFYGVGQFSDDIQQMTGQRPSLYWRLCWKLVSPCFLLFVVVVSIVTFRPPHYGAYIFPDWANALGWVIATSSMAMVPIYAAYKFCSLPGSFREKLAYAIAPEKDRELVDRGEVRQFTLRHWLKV
Property Label: pKi
Quick note: pKi values are minus log10 of concentrations in mol/L.

Task: Look up pKi with Human dopamine transporter (DAT) (Homo sapiens, UniProt Q01959) for this compound: COc1ccc(O[C@@H](CC(C)C)[C@H]2CCNC2)c(C)n1.O=C(O)C(O)C(O)C(=O)O
Result: 6.34

----------
- Target System: Human norepinephrine (NET) transporter (Homo sapiens)
- Sequence (P23975 whole entry): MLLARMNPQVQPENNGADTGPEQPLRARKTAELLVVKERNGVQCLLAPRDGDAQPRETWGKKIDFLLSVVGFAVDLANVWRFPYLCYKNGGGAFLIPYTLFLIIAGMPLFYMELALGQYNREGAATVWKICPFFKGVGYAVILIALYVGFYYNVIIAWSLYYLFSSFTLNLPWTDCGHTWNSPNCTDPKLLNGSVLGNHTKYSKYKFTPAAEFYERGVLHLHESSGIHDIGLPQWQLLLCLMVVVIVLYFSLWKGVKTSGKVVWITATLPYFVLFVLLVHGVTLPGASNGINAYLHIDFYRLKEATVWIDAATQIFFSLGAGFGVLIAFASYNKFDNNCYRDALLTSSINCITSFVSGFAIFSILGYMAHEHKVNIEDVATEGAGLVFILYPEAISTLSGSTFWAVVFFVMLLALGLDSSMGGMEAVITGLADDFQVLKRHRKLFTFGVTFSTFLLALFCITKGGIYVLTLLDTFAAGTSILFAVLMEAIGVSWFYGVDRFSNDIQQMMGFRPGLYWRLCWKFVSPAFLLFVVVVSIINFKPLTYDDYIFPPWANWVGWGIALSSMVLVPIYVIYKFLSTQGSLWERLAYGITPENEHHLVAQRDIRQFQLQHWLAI
- Protocol: In vitro inhibitor activity assay (3H-norepinephrine uptake)
- Assay Setup: transfected HEK293 cells, read-out: IC50 hNET (norepinephrine reuptake)
Property Label: pIC50
// returns pIC50 (minus log10 of molar concentration), number only

Task: Please give the measured pIC50 for this compound: COc1ccc(O[C@@H](CC(C)C)[C@H]2CCNC2)c(C)n1.O=C(O)C(O)C(O)C(=O)O [EXAMPLE 19]
Result: 8.13

----------
- Target System: Human serotonin (SERT) transporter (Homo sapiens, UniProt P31645)
- Sequence (P31645 whole entry): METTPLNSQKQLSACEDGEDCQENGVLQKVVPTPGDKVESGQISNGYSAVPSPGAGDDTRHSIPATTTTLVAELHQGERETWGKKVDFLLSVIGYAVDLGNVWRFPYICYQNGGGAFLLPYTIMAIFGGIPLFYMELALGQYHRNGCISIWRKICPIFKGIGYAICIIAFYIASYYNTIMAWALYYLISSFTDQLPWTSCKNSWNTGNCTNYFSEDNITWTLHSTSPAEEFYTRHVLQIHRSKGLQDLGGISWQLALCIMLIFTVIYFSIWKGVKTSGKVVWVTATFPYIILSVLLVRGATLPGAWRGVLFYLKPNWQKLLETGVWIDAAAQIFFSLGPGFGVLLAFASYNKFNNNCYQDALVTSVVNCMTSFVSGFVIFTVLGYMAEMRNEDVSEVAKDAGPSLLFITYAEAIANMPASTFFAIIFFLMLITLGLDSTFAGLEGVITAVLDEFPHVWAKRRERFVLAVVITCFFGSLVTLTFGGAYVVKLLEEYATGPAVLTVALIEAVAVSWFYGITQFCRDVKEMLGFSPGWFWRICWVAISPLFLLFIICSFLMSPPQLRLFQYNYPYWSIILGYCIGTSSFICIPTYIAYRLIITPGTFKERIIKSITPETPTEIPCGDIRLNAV
- Protocol: In vitro inhibitor activity assay (3H-serotonin uptake)
- Assay Setup: transfected HEK293 cells, read-out: IC50 hSERT (serotonin reuptake)
Property Label: pIC50
Remember, pIC50 is on a log scale: it is -log10 of the molar concentration.

Task: Query: pIC50; subject: COc1ccc(O[C@@H](CC(C)C)[C@H]2CCNC2)c(C)n1.O=C(O)C(O)C(O)C(=O)O
Result: 8.67

----------
- Target System: Human norepinephrine transporter (NET) (Homo sapiens)
- Sequence (P23975 whole entry): as the sequence (P23975 whole entry) above
Property Label: Ki (nM)
Give your result in nM as a bare value.

Task: Short answer please: Ki, Human norepinephrine transporter (NET) (Homo sapiens), entry COc1ccc(O[C@@H](CC(C)C)[C@H]2CCNC2)c(C)n1.O=C(O)C(O)C(O)C(=O)O
Result: 1.08

These entries and their values trace back to patent US8173821B2.
